Target under test: T1, human IL-33 (mm2) (human, UniProt O95760 112-270)
T1 construct: Variant in which all four cysteine residues are serine; the entry carries an N-terminal Met and a C-terminal His6; Biotinylated in some assays; also called hIL-33 (mm2); huIL-33 (mm2)
T1 chain: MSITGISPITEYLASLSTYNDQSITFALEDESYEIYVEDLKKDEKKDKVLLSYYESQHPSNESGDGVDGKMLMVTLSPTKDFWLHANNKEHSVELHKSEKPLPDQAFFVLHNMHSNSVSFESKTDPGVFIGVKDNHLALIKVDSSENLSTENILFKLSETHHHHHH
Assay info: BIAcore, IgG captured by anti-human Fc, 125 nM IL-33 (mm2)
Property measured: koff
The reply should consist of the numeric value with the unit placed after it.

response.value for 9B3-2A (antibody, human IgG1, kappa, V domains shown) VH: EVQLVETGGGLVQPGRSLKLSCVASGFTFSNYWMYWIRQAPGMGLEWVSSINNDGGNTYYLDSVKGRFTISRNNAENTVYLQMNSLRSEDTATYYCAKGHYSYSSYSFGYWGQGTLVTVSS VL: DIQMTQSPSVLSASVGDRVTLSCKASHNINKHLDWYQQKVGEAPKLLIYFTNNLQTGIPSRFSGSGSGTDYTLTISSLQPEDVATYFCFQYNSGWTFGQGTKVEIKR (field: koff) = 0.000437 s⁻¹
